All values here come from patent US6124449.

Entries and their Kd values follow.
system_under_test: TGF-beta1 (hTGF-beta1) (Homo sapiens, UniProt P01137 P01137:279-390)
Sequence (P01137 279-390, one chain of several): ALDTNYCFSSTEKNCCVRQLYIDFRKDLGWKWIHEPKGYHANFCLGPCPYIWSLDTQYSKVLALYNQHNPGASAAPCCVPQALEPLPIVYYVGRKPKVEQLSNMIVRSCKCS
protocol_text: filter; monophasic
assay_setup: tags: R&D Systems; biotinylated form (NFTG0) used for BIAcore; chain copies: 2
Just the number in nM, nothing appended.

Worked examples, 2 binders total:
Please give the documented Kd of 40-38 (ssRNA, 2'-F C and U) RNA: GGGAGGACGAUGCGGAGAUAAUUAUCAGCGGUGGACGGGGUGCCGGUACUGCCGCCAGACGACUCGCCCGA
21.8

Please give the documented Kd of 30-37 (ssRNA, 2'-F C and U) RNA: GGGAGGACGAUGCGGUGUCUUUGGCCUAGGUGAUUCCUUCUGCCGCAGACGACUCGCCCGA
2.65

// below: Kd requested for another binder
Please give the documented Kd of 40-44 (ssRNA, 2'-F C and U) RNA: GGGAGGACGAUGCGGUGCAAGGUUACGCCGUCGGACCCUGCUGCCAACAUCCUCCCCAGACGACUCGCCCGA
11.1
